These data points were gathered from ChEMBL document CHEMBL6092188.

# assay summary: in vitro
# settings: male, CD-1, mouse, liver microsomes
Catalogue of half-life at 1 h values
Could you give me the number in min? Just the number is fine.

>  <compound>
Cn1c2ccccc2c2c(C(=O)NC(C(=O)O)c3ccc4c(c3)CN(S(=O)(=O)c3cccc(Br)c3)CC4)cccc21 (stereo not given)

>  <half-life at 1 h (min)>
5.4

$$$$
>  <compound>
COc1ccc(S(=O)(=O)NCc2cccc(C(NC(=O)c3cccc4c3-c3ccccc3C4=O)C(=O)O)c2)cc1 (stereo not given)

>  <half-life at 1 h (min)>
3.6

$$$$
>  <compound>
CCOc1ccc(S(=O)(=O)N2CCc3ccc(C(NC(=O)c4cccc5c4-c4ccccc4C5=O)C(=O)O)cc3C2)cc1C#N (stereo not given)

>  <half-life at 1 h (min)>
3.8

$$$$
>  <compound>
Cn1c2ccccc2c2c(C(=O)NC(C(=O)O)c3ccc4c(c3)CN(S(=O)(=O)c3ccc(F)c(C#N)c3)CC4)cccc21 (stereo not given)

>  <half-life at 1 h (min)>
13

$$$$

Challenge: Entry under review: N#Cc1cc(S(=O)(=O)N2CCc3ccc(C(NC(=O)c4cccc5c4-c4ccccc4C5=O)C(=O)O)cc3C2)ccc1F (stereo not given) . Reported half-life at 1 h?
Response given: 3.2

====

remaining at 0.5 h: recorded values
# assay summary: Metabolic stability in human liver microsomes assessed as parent compound remaining measured after 30 mins in presence of NADPH regenerating system by LC-MS analysis
# Type: ADME, Microsome
# settings: read-out: Stability

Solved entries:
>  <compound>
N#Cc1cccc(S(=O)(=O)N2CCc3ccc(C(NC(=O)c4cccc5c4-c4ccccc4C5=O)C(=O)O)cc3C2)c1 (stereo not drawn)

>  <measured metric>
remaining at 0.5 h

>  <result>
< 3%

$$$$
>  <compound>
N#Cc1cc(S(=O)(=O)N2CCc3ccc(C(NC(=O)c4cccc5c4-c4ccccc4C5=O)C(=O)O)cc3C2)ccc1F (stereo not drawn)

>  <measured metric>
remaining at 0.5 h

>  <result>
< 3%

$$$$

Would you kindly look at the next entry?
Challenge: Param item = CCOc1ccc(S(=O)(=O)N2CCc3ccc(C(NC(=O)c4cccc5c4-c4ccccc4C5=O)C(=O)O)cc3C2)cc1C#N (stereo not drawn) ; retrieve measured remaining at 0.5 h.
Response given: < 3%
